MICUTBLP reference
Test system: E. coli ATCC 25922
Assay type: cell-based, Escherichia coli
Details: UTBLP alone, plate with niclosamide
Non-standard residues stand in square brackets, D forms with d. Residues, ends and D or L forms follow the SMILES beside them. *: point of attachment. Lys(Me3) = C[N+](C)(C)CCCC[C@H](N)C(=O)O; Lys(Me) = CNCCCC[C@H](N)C(=O)O; Octanoyl = CCCCCCCC(=O)*

Data point: CCCCCCCC(=O)N[C@@H](CCCCNC)C(=O)NCCCN(CCCNC(=O)[C@H](CCCCNC)NC(=O)CCCCCCC)CC(=O)N[C@@H](CCCCNC)C(N)=O [UTBLP 2] ; MICUTBLP = > 128 µg/mL

***
Summary for this molecule, CCCCCCCC(=O)NCCCC[C@H](NC(=O)CCCCCCC)C(=O)N[C@@H](CCCCNC)C(=O)N[C@@H](CCCCNC)C(=O)N[C@@H](CCCCNC)C(=O)N[C@@H](CCCCNC)C(N)=O [UTBLP 6] (Octanoyl-K(Octanoyl)[Lys(Me)][Lys(Me)][Lys(Me)][Lys(Me)]-NH2) : MICUTBLP is 32 µg/mL

MICUTBLP reported for this molecule CCCCCCCC(=O)NCCCC[C@H](NC(=O)CCCCCCC)C(=O)N[C@@H](CCCC[N+](C)(C)C)C(=O)N[C@@H](CCCC[N+](C)(C)C)C(=O)N[C@@H](CCCC[N+](C)(C)C)C(=O)N[C@@H](CCCC[N+](C)(C)C)C(N)=O [UTBLP 8] (Octanoyl-K(Octanoyl)[Lys(Me3)][Lys(Me3)][Lys(Me3)][Lys(Me3)]-NH2) : > 128 µg/mL

----------
Tested on: K. pneumoniae 113250
Format: cell-based, Klebsiella pneumoniae
Conditions: UTBLP in combination with novobiocin
// MICUTBLP [MICcombo] lookup, one value per entry
Answer in µg/mL, number only, no unit symbol.

// recorded MICUTBLP [MICcombo] for CCCCCCCC(=O)N[C@@H](CCCCN(C)C)C(=O)NCCCN(CCCNC(=O)[C@H](CCCCN(C)C)NC(=O)CCCCCCC)CC(=O)N[C@@H](CCCCN(C)C)C(N)=O : 16

----------
Test system: A. baumannii ATCC 17978
Assay type: cell-based, Acinetobacter baumannii
Settings: chloramphenicol in combination with the UTBLP
Procedure: The synergy of the UTBLPs with various antibiotics was assessed using checkerboard assay as previously described. […] Growth in the form of turbidity was confirmed using an EMax Plus microplate reader (Molecular Devices, Union City, CA, USA) at 590 nm. […] The FIC value is calculated by dividing the MIC of the agents in combination by the MIC of the agent alone. […]
Non-standard residues stand in square brackets, D forms with d. Residues, ends and D or L forms follow the SMILES beside them. *: point of attachment. Lys(Me3) = C[N+](C)(C)CCCC[C@H](N)C(=O)O; Lys(Me2) = CN(C)CCCC[C@H](N)C(=O)O; Lys(Me) = CNCCCC[C@H](N)C(=O)O; Octanoyl = CCCCCCCC(=O)*
REPORTED_PROPERTY: MICantibiotic [MICcombo] (µg/mL)
Note: unit µg/mL is implicit; provide only the numeric part.

The following molecules have reported results that may help.
Kindly note the recorded MICantibiotic [MICcombo] for CCCCCCCC(=O)NCCCC[C@H](NC(=O)CCCCCCC)C(=O)N[C@@H](CCCCNC)C(=O)N[C@@H](CCCCNC)C(=O)N[C@@H](CCCCNC)C(=O)N[C@@H](CCCCNC)C(N)=O [UTBLP 6] (Octanoyl-K(Octanoyl)[Lys(Me)][Lys(Me)][Lys(Me)][Lys(Me)]-NH2) , which is 32

Quick note, MICantibiotic [MICcombo] for CCCCCCCC(=O)NCCCC[C@H](NC(=O)CCCCCCC)C(=O)N[C@@H](CCCC[N+](C)(C)C)C(=O)N[C@@H](CCCC[N+](C)(C)C)C(=O)N[C@@H](CCCC[N+](C)(C)C)C(=O)N[C@@H](CCCC[N+](C)(C)C)C(N)=O [UTBLP 8] (Octanoyl-K(Octanoyl)[Lys(Me3)][Lys(Me3)][Lys(Me3)][Lys(Me3)]-NH2) landed at 64

***
molecule CCCCCCCC(=O)NCCCC[C@H](NC(=O)CCCCCCC)C(=O)N[C@@H](CCCCN(C)C)C(=O)N[C@@H](CCCCN(C)C)C(=O)N[C@@H](CCCCN(C)C)C(=O)N[C@@H](CCCCN(C)C)C(N)=O [UTBLP 7] (Octanoyl-K(Octanoyl)[Lys(Me2)][Lys(Me2)][Lys(Me2)][Lys(Me2)]-NH2) , MICantibiotic [MICcombo] observed: 64

----------
A collection of compounds and their measured MICUTBLP [MICcombo]
Test system: E. coli ATCC 25922
Format: cell-based, Escherichia coli
Conditions: UTBLP in combination with rifampicin
Non-standard residues stand in square brackets, D forms with d. Residues, ends and D or L forms follow the SMILES beside them. *: point of attachment. Lys(Me2) = CN(C)CCCC[C@H](N)C(=O)O; Lys(Me) = CNCCCC[C@H](N)C(=O)O; Octanoyl = CCCCCCCC(=O)*
Your answer should be a plain number; it is taken to be in µg/mL.

The compound listed as CCCCCCCC(=O)N[C@@H](CCCCNC)C(=O)NCCCN(CCCNC(=O)[C@H](CCCCNC)NC(=O)CCCCCCC)CC(=O)N[C@@H](CCCCNC)C(N)=O shows MICUTBLP [MICcombo] equal to 16

# MICUTBLP [MICcombo] (compound: CCCCCCCC(=O)NCCCC[C@H](NC(=O)CCCCCCC)C(=O)N[C@@H](CCCCNC)C(=O)N[C@@H](CCCCNC)C(=O)N[C@@H](CCCCNC)C(=O)N[C@@H](CCCCNC)C(N)=O [UTBLP 6] (Octanoyl-K(Octanoyl)[Lys(Me)][Lys(Me)][Lys(Me)][Lys(Me)]-NH2) ) is 4

Lab book: MICUTBLP [MICcombo] of CCCCCCCC(=O)NCCCC[C@H](NC(=O)CCCCCCC)C(=O)N[C@@H](CCCCN)C(=O)N[C@@H](CCCCN)C(=O)N[C@@H](CCCCN)C(=O)N[C@@H](CCCCN)C(N)=O [UTBLP 5] (Octanoyl-K(Octanoyl)KKKK-NH2) noted as 2

---
Short answer for CCCCCCCC(=O)NCCCC[C@H](NC(=O)CCCCCCC)C(=O)N[C@@H](CCCCN(C)C)C(=O)N[C@@H](CCCCN(C)C)C(=O)N[C@@H](CCCCN(C)C)C(=O)N[C@@H](CCCCN(C)C)C(N)=O [UTBLP 7] (Octanoyl-K(Octanoyl)[Lys(Me2)][Lys(Me2)][Lys(Me2)][Lys(Me2)]-NH2) : MICUTBLP [MICcombo] was 8

----------
Item-by-item account of MIC
System: E. coli 94474
Assay: microbe, parasite or virus in culture
Type: cell-based, Escherichia coli
Conditions: Escherichia coli, 18 h; E. coli 94474 (mcr-1 +); read-out: MICs of various antibiotics
Quick reminder: number only, in µg/mL, skip the unit.

# count of solved cases: 2
Value of MIC reported for the molecule C[C@H]1COc2c(N3CCN(C)CC3)c(F)cc3c(=O)c(C(=O)O)cn1c23 is 32

Looking up CO[C@@]1(NC(=O)Cc2cccs2)C(=O)N2C(C(=O)O)=C(COC(N)=O)CS[C@@H]21 , I see its MIC listed as 16

Turning now to a further molecule:
response.value for CNC(C)C1CCC(N)C(OC2C(N)CC(N)C(OC3OCC(C)(O)C(NC)C3O)C2O)O1 (stereo not shown) (field: MIC) = 16

----------
Tested on: E. faecium ATCC 27270
Type: cell-based, Enterococcus faecium
Details: ATCC 27270, 18 h
Protocol: The in vitro antibacterial activity of the UTBLPs was assessed against wild-type and clinically isolated bacterial strains. To obtain the MIC of the compounds, the microbroth dilution susceptibility assay was performed according to the Clinical and Laboratory Standards Institute (CLSI, Wayne, PA, USA) guidelines and as previously described. […] Growth in the form of turbidity was confirmed using an EMax Plus microplate reader (Molecular Devices, San Jose, CA, USA) at 590 nm.
Non-standard residues stand in square brackets, D forms with d. Residues, ends and D or L forms follow the SMILES beside them. *: point of attachment. Lys(Me3) = C[N+](C)(C)CCCC[C@H](N)C(=O)O; Lys(Me2) = CN(C)CCCC[C@H](N)C(=O)O; Lys(Me) = CNCCCC[C@H](N)C(=O)O; Octanoyl = CCCCCCCC(=O)*
REPORTED_PROPERTY: MIC

Reported MIC for CCCCCCCC(=O)NCCCC[C@H](NC(=O)CCCCCCC)C(=O)N[C@@H](CCCCN(C)C)C(=O)N[C@@H](CCCCN(C)C)C(=O)N[C@@H](CCCCN(C)C)C(=O)N[C@@H](CCCCN(C)C)C(N)=O [UTBLP 7] (Octanoyl-K(Octanoyl)[Lys(Me2)][Lys(Me2)][Lys(Me2)][Lys(Me2)]-NH2) was 128 µg/mL

New cases:
Record CCCCCCCC(=O)NCCCC[C@H](NC(=O)CCCCCCC)C(=O)N[C@@H](CCCCN)C(=O)N[C@@H](CCCCN)C(=O)N[C@@H](CCCCN)C(=O)N[C@@H](CCCCN)C(N)=O [UTBLP 5] (Octanoyl-K(Octanoyl)KKKK-NH2) . Reported MIC: 32 µg/mL

// MIC value for CCCCCCCC(=O)N[C@@H](CCCCN(C)C)C(=O)NCCCN(CCCNC(=O)[C@H](CCCCN(C)C)NC(=O)CCCCCCC)CC(=O)N[C@@H](CCCCN(C)C)C(N)=O : >128 µg/mL

So, CCCCCCCC(=O)NCCCC[C@H](NC(=O)CCCCCCC)C(=O)N[C@@H](CCCCNC)C(=O)N[C@@H](CCCCNC)C(=O)N[C@@H](CCCCNC)C(=O)N[C@@H](CCCCNC)C(N)=O [UTBLP 6] (Octanoyl-K(Octanoyl)[Lys(Me)][Lys(Me)][Lys(Me)][Lys(Me)]-NH2) ? Its MIC was 64 µg/mL

molecule CCCCCCCC(=O)N[C@@H](CCCCNC)C(=O)NCCCN(CCCNC(=O)[C@H](CCCCNC)NC(=O)CCCCCCC)CC(=O)N[C@@H](CCCCNC)C(N)=O , MIC observed: >128 µg/mL

For this molecule ( CCCCCCCC(=O)NCCCC[C@H](NC(=O)CCCCCCC)C(=O)N[C@@H](CCCC[N+](C)(C)C)C(=O)N[C@@H](CCCC[N+](C)(C)C)C(=O)N[C@@H](CCCC[N+](C)(C)C)C(=O)N[C@@H](CCCC[N+](C)(C)C)C(N)=O [UTBLP 8] (Octanoyl-K(Octanoyl)[Lys(Me3)][Lys(Me3)][Lys(Me3)][Lys(Me3)]-NH2) ), measured MIC is 128 µg/mL

Consider CCCCCCCC(=O)N[C@@H](CCCCN)C(=O)NCCCN(CCCNC(=O)[C@H](CCCCN)NC(=O)CCCCCCC)CC(=O)N[C@@H](CCCCN)C(N)=O . Its measured MIC is 64 µg/mL
